Source of measurements: patent US8309581B2

For each of the molecules below, state its IC50.
# subject_of_test: FXR ligand binding domain (Homo sapiens, UniProt Q96RI1)
# Sequence (Q96RI1 193-472 isoform Q96RI1-2): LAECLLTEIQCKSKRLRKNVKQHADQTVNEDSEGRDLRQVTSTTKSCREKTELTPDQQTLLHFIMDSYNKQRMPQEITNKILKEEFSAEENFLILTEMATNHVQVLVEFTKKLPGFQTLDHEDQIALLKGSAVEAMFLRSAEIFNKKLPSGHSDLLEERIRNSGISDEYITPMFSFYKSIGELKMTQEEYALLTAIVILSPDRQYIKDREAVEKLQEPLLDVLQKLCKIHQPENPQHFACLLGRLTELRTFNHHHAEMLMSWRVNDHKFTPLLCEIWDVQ
# test_summary: Radioligand Binding Assay (scintillation proximity radioligand displacement)
# cond: GST-FXR LBD fusion protein on SPA beads, test compound 6×10^−9 M to 2.5×10^−5 M
Form entry: value (µM) — number only.

### Prompt Output IC50 of O=C(O)C1CCC(COc2cc(Cl)ccc2-c2nc3cc(F)c(F)cc3n2CC2CCCCC2)CC1 (stereo not shown)
### Response 0.7

### Prompt Read the entry "Fc1cc2nc(-c3ccc(Cl)cc3OCc3cccc(-c4nnn[nH]4)c3)n(CC3CCCCC3)c2cc1F" and write its reported IC50.
### Response 0.4

### Prompt Report IC50, nothing else, for this molecule: "Fc1cc2nc(-c3ccc(Cl)cc3OCc3ccccc3Cl)n(Cc3cccc(Cl)c3)c2cc1F"
### Response 1.7

### Prompt Name the recorded IC50 of the item "O=C(O)c1ccc(CCOc2cc(Cl)ccc2-c2nc3cc(F)c(F)cc3n2CC2CCCCC2)cc1" in your answer.
### Response 0.5

### Prompt Item "Fc1cc2nc(-c3ccc(Cl)cc3OCc3ccc(-c4nnn[nH]4)c(F)c3)n(CC3CCCCC3)c2cc1F" : provide IC50
### Response 0.04

### Prompt In one line, give reported IC50 of the entry "CCC(CC)COc1cc(Cl)ccc1-c1nc2cc(F)c(F)cc2n1Cc1ccc(-c2nnn[nH]2)cc1F" .
### Response 0.01

### Prompt Provide only the value of recorded IC50 for "O=C(O)Cc1ccc(COc2cc(Cl)ccc2-c2nc3cc(F)c(F)cc3n2CC2CCCCC2)cc1"
### Response 0.2

### Prompt Give the reported IC50 for this molecule. "O=C(O)CCc1ccc(Cn2c(-c3cccnc3OCc3ccccc3Cl)nc3cc(F)c(F)cc32)cc1"
### Response 10.2

### Prompt Specify measured IC50 for "FC1(F)CCC(Cn2c(-c3ccccc3CCc3ccc(-c4nnn[nH]4)cc3)nc3ccccc32)CC1" .
### Response 0.04

### Prompt Using known records, supply IC50 for "Fc1cc2nc(-c3ccc(Cl)cc3OCC3CC3)n(Cc3cccc(Cl)c3)c2cc1F"
### Response 2.6

### Prompt Answer with the recorded IC50 for the molecule listed here: "Fc1cc2nc(-c3ccc(Cl)cc3OCc3ccc(-c4nnn[nH]4)cc3C(F)(F)F)n(CC3CCCCC3)c2cc1F"
### Response 0.2

### Prompt Hello, please tell me recorded IC50 for this one: "O=C(O)c1ccc(COc2ncccc2-c2nc3cc(F)c(F)cc3n2CC2CCCCC2)cc1"
### Response 5.8

### Prompt Return value of IC50 for input "Fc1cc2nc(-c3ccc(Cl)cc3OCC3CCCCC3)n(CC3CCCCC3)c2cc1F" , no commentary.
### Response 0.2

### Prompt State its IC50: "Fc1cc2nc(-c3ccc(Cl)cc3OCC3CCC3)n(Cc3ccc(-c4nnn[nH]4)cc3F)c2cc1F"
### Response 0.02

### Prompt Give recorded IC50. "Fc1cc2nc(-c3cccnc3OCc3ccccc3Cl)n(Cc3cccc(Cl)c3)c2cc1F"
### Response 0.8

### Prompt Determine its reported IC50: "O=C(Nc1cc(Cl)ccc1-c1nc2cc(F)c(F)cc2n1CC1CCCCC1)c1ccc(-c2nnn[nH]2)cc1F"
### Response 0.0002
